B1: TMEM106C (parent)
chain: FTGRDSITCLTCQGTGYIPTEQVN

variants of: B1; experiment: protein stability index of a GFP-peptide fusion (GPS, HEK-293T) (PSI 1-6); higher = more stable; conditions: c terminus: a fixed tail appended;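 further: lentivirally expressed fusions sorted by FACS into six bins by GFP to DsRed ratio, PSI derived from sequencing read proportions per bin multiplied by bin number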
Listing: protein stability index of selected variants
METRIC_NAME: protein stability index

{"MUTATIONS": "I7E", "METRIC_NAME": "protein stability index", "QUANTITATIVE_READOUT": 2.89}
{"MUTATIONS": "I7Q", "METRIC_NAME": "protein stability index", "QUANTITATIVE_READOUT": 2.5}
{"MUTATIONS": "G16R", "METRIC_NAME": "protein stability index", "QUANTITATIVE_READOUT": 2.21}
{"MUTATIONS": "T11N", "METRIC_NAME": "protein stability index", "QUANTITATIVE_READOUT": 1.86}
{"MUTATIONS": "C12I", "METRIC_NAME": "protein stability index", "QUANTITATIVE_READOUT": 2.4}
{"MUTATIONS": "G14L", "METRIC_NAME": "protein stability index", "QUANTITATIVE_READOUT": 2.8}
{"MUTATIONS": "D5V", "METRIC_NAME": "protein stability index", "QUANTITATIVE_READOUT": 4.33}
{"MUTATIONS": "L10A", "METRIC_NAME": "protein stability index", "QUANTITATIVE_READOUT": 2.29}
{"MUTATIONS": "G14R", "METRIC_NAME": "protein stability index", "QUANTITATIVE_READOUT": 2.24}
{"MUTATIONS": "C9N", "METRIC_NAME": "protein stability index", "QUANTITATIVE_READOUT": 1.94}
{"MUTATIONS": "Y17K", "METRIC_NAME": "protein stability index", "QUANTITATIVE_READOUT": 1.94}
{"MUTATIONS": "E21A", "METRIC_NAME": "protein stability index", "QUANTITATIVE_READOUT": 1.79}
{"MUTATIONS": "G3R", "METRIC_NAME": "protein stability index", "QUANTITATIVE_READOUT": 2.84}
{"MUTATIONS": "C9F", "METRIC_NAME": "protein stability index", "QUANTITATIVE_READOUT": 2.86}
{"MUTATIONS": "I18P", "METRIC_NAME": "protein stability index", "QUANTITATIVE_READOUT": 1.58}
{"MUTATIONS": "P19L", "METRIC_NAME": "protein stability index", "QUANTITATIVE_READOUT": 2.29}
{"MUTATIONS": "T2C", "METRIC_NAME": "protein stability index", "QUANTITATIVE_READOUT": 2.63}
{"MUTATIONS": "T2A", "METRIC_NAME": "protein stability index", "QUANTITATIVE_READOUT": 2.81}
{"MUTATIONS": "T11P", "METRIC_NAME": "protein stability index", "QUANTITATIVE_READOUT": 1.55}
{"MUTATIONS": "Q22F", "METRIC_NAME": "protein stability index", "QUANTITATIVE_READOUT": 1.85}
{"MUTATIONS": "P19M", "METRIC_NAME": "protein stability index", "QUANTITATIVE_READOUT": 2.15}
{"MUTATIONS": "T20L", "METRIC_NAME": "protein stability index", "QUANTITATIVE_READOUT": 2.19}
{"MUTATIONS": "D5P", "METRIC_NAME": "protein stability index", "QUANTITATIVE_READOUT": 2.12}
{"MUTATIONS": "L10W", "METRIC_NAME": "protein stability index", "QUANTITATIVE_READOUT": 2.01}
{"MUTATIONS": "I7T", "METRIC_NAME": "protein stability index", "QUANTITATIVE_READOUT": 2.78}
{"MUTATIONS": "P19C", "METRIC_NAME": "protein stability index", "QUANTITATIVE_READOUT": 2.29}
{"MUTATIONS": "T8V", "METRIC_NAME": "protein stability index", "QUANTITATIVE_READOUT": 2.09}
{"MUTATIONS": "T8C", "METRIC_NAME": "protein stability index", "QUANTITATIVE_READOUT": 2.11}
{"MUTATIONS": "Q13D", "METRIC_NAME": "protein stability index", "QUANTITATIVE_READOUT": 1.83}
{"MUTATIONS": "R4Q", "METRIC_NAME": "protein stability index", "QUANTITATIVE_READOUT": 2.46}
{"MUTATIONS": "D5F", "METRIC_NAME": "protein stability index", "QUANTITATIVE_READOUT": 3}
{"MUTATIONS": "L10T", "METRIC_NAME": "protein stability index", "QUANTITATIVE_READOUT": 2.65}
{"MUTATIONS": "T2I", "METRIC_NAME": "protein stability index", "QUANTITATIVE_READOUT": 1.97}
{"MUTATIONS": "C12N", "METRIC_NAME": "protein stability index", "QUANTITATIVE_READOUT": 2.18}
